Parameter: IC50. Scope: all listed entries.
Target: hMrgpMRGPRX2 (Homo sapiens, UniProt Q96LB1)
Construct: expressed in transfected cells
Test: FLIPR intracellular calcium mobilization, antagonist activity in recombinant hMrgpMRGPRX2 expressing cells
Assay type: cell-based
Conditions: read-out: Human MrgprX2 Antagonist pIC50 (converted)
Description: Potent and selective hMrgpMRGPRX2 compounds have been generated from compounds identified during a high throughput screening (HTS) campaign and followed up with cycles of structure activity based medicinal chemistry efforts. […] The assays used to determine potencies are functional read-out looking at intracellular calcium mobilization using the FLIPR™ technology. […]
Report only the number, with the unit nM understood.

As a guide, the following entries are already answered.
Cc1cnc(NC(=O)C2C(C)(C)C2(C)C)cn1	1580
CC1(C)C(C(=O)Nc2ccc(-c3ccn[nH]3)cn2)C1(C)C	120

Now turn to the next compound.
Need IC50 of CC1(C)C(C(=O)Nc2ccc(-c3cncc(F)c3)cn2)C1(C)C , thanks.
70.8

----------
Target: hMrgpMRGPRX2 (Homo sapiens)
Construct: expressed in transfected cells
Sequence (Q96LB1 1-330): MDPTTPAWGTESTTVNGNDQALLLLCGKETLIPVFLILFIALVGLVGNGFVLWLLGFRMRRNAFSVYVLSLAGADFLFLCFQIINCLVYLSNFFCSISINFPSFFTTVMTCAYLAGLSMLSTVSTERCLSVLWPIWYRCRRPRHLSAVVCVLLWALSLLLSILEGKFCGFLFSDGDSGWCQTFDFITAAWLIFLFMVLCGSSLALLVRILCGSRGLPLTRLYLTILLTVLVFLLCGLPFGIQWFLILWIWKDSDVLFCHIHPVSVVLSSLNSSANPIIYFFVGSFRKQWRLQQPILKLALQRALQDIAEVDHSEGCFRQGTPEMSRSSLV
Assay: FLIPR intracellular calcium mobilization, antagonist activity in recombinant hMrgpMRGPRX2 expressing cells
Assay type: cell-based
Conditions: read-out: Human MrgprX2 Antagonist pIC50 (converted)
RECORDED ENDPOINT: IC50

As a guide, the following entries are already answered.
CCN(C[C@@H](O)C(F)(F)F)C(=O)Nc1ccc(Oc2cccc(F)c2C#N)cn1	120 nM
CC1(C)CCC1C(=O)Nc1ccc(Oc2ccc(F)c(F)c2)cn1 (stereo not drawn)	10 nM
CC1(C)OCCC1C(=O)Nc1ccc(Oc2ccc(F)c(F)c2)cn1 (stereo not drawn)	263 nM

Need IC50 of CCN(C[C@@H](O)C(F)(F)F)C(=O)Nc1ccc(Oc2ccccc2F)cn1 , thanks.
3.8 nM

Need IC50 of CC1(C)C[C@@H]1C(=O)Nc1ccc(Oc2ccc(F)c(F)c2)cn1 , thanks.
3.98 nM

Need IC50 of CCN(C[C@@H](O)C(F)(F)F)C(=O)Nc1ccc(-c2ncco2)cn1 , thanks.
3090 nM

Need IC50 of CC1(C)C(C(=O)Nc2ccc(Oc3cncc(F)c3)nn2)C1(C)C , thanks.
9120 nM

Need IC50 of CC1(C)CC1C(=O)Nc1ccc(Oc2ccc(F)c(F)c2)cn1 (stereo not drawn) , thanks.
3.98 nM

----------
Biological target: hMrgpMRGPRX2 (Homo sapiens, UniProt Q96LB1)
Construct: expressed in transfected cells
Assay: FLIPR intracellular calcium mobilization, antagonist activity in recombinant hMrgpMRGPRX2 expressing cells
Assay type: cell-based
Settings: read-out: Human MrgprX2 Antagonist pIC50 (converted)
RECORDED ENDPOINT: IC50 (nM)
Report only the number, with the unit nM understood.

As a guide, the following entries are already answered.
CC(C)C(=O)Nc1ccc(Oc2ccccc2)cn1 [Compound E002]	501
Cn1cc(-c2ccc(NC(=O)C3C(C)(C)C3(C)C)nc2)nn1 [Compound E190]	631
COCC(C)(C)C(=O)Nc1ccc(Oc2ccc(F)c(F)c2)cn1 [Compound E040]	501

Now turn to the next compound.
Request body: readout IC50, system hMrgpMRGPRX2 (Homo sapiens, UniProt Q96LB1), query NS(=O)(=O)N1CCC[C@@H]1C(=O)Nc1ccc(Oc2cc(F)ccc2F)cn1 [Compound E280] . Return the value.
589
